Catalogue of pEC50 readings, one per entry.
EXPERIMENTAL_SYSTEM: Gonadotropin-releasing hormone receptor (Homo sapiens, UniProt P30968)
Sequence (P30968 whole entry): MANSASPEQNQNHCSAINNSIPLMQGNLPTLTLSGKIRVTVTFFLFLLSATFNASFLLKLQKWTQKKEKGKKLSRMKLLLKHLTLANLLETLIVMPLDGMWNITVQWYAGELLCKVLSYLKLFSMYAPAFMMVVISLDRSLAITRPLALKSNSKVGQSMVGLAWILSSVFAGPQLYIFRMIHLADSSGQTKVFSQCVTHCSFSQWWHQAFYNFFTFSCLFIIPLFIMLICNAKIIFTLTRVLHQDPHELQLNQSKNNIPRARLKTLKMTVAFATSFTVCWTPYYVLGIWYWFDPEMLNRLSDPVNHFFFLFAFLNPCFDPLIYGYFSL
METHOD_SUMMARY: Antagonist activity at wild type HA-tagged human GnRH1 receptor expressed in HEK293T cells assessed as inhibition of GnRH peptide-stimulated IP1 accumulation by measuring GnRH peptide EC50 at 100 uM pretreated for 1 hr followed by stimulation with GnRH peptide for 1 hr (reference value: 2.5 nM)
A value of pEC50 is the negative decimal logarithm of a concentration given in moles per litre.

compound="COc1cccc(-c2c(C)n(Cc3c(F)cccc3C(F)(F)F)c(=O)n(C[C@H](NCCCC(=O)O)c3ccccc3)c2=O)c1F [ELAGOLIX]" reported_value=9.22
compound=COc1cccc(-c2c(N[C@@H](CSCCCC(=O)O)c3ccccc3)nc(=O)n(Cc3c(F)cccc3C(F)(F)F)c2C)c1F reported_value=7.41

Here is another compound to look at.
IN: Which pEC50 value is on record for `COc1cccc(-c2c(SC[C@H](NCCCC(=O)O)c3ccccc3)nc(=O)n(Cc3c(F)cccc3C(F)(F)F)c2C)c1F` ?
OUT: 6.96
